- System: KM12 colon
- ASSAY METHOD TEXT: NCI-60 one-dose screen, 48 h (100 = growth as untreated, 0 = no growth, -100 = all killed)
- COND: 10 µM unless noted
This is part of a sample that, as a whole, favours compounds with a hit. Of some 83,000 tested, about 20% had one in any assay. Calls of active or inactive are those of the source. Rule for the calls: active = growth percent below 10; inactive = the rest.
RESULT TYPE: growth

[ask] Provide KM12 colon growth reading for "Oc1nc(NCc2ccccc2)sc1/C=C1\C=Nc2ncccc21" .
[reply] 55% (inactive)

[ask] Provide KM12 colon growth reading for "COc1cc(OC)c2c(=O)c3c(CC=C(C)C)cc(OC)c(O)c3oc2c1" .
[reply] 66.4% (inactive)

[ask] Provide KM12 colon growth reading for "COc1cc2c(cc1OCCCN1CCN(C(=S)SCCC(C#N)(c3ccccc3)c3ccccc3)CC1)N=C[C@@H]1CCCN1C2=O" .
[reply] -75.1% (active)

[ask] Provide KM12 colon growth reading for "CC(C)(C)c1ccc(C(=O)N/N=C/c2ccc(O)cc2O)cc1" .
[reply] 12.5% (inactive)

[ask] Provide KM12 colon growth reading for "CCN(CC)CCN1C(=O)c2c(c3c4ccccc4[nH]c3c3ccc4ccccc4c23)C1=O" .
[reply] -15.8% (active)

[ask] Provide KM12 colon growth reading for COc1ccc(-c2cc(C(=O)N3N=C(c4ccc(N)cc4)CC3c3ccc(Cl)cc3)c3ccccc3n2)cc1 (stereo unspecified) .
[reply] 20.7% (inactive)

[ask] Provide KM12 colon growth reading for "Cc1cc(NCCCNc2ccnc3cc(Cl)ccc23)nc(Nc2ccc(C(=O)N3CCCCC3)cc2)n1" .
[reply] 26.1% (inactive)

[ask] Provide KM12 colon growth reading for "C=C(C)[C@@H]1CC[C@]2(C(=O)Nc3ccccn3)CC[C@]3(C)[C@H](CC[C@@H]4[C@@]5(C)CCCNC(C)(C)[C@@H]5CC[C@]43C)[C@@H]12" .
[reply] 10.6% (inactive)

[ask] Provide KM12 colon growth reading for "Cc1ccc(C(=O)c2ccc(CC(=O)N/N=C/c3cccc(O)c3O)n2C)cc1" .
[reply] 44.2% (inactive)

[ask] Provide KM12 colon growth reading for "COc1cccc(CNc2c3ccccc3nc3ccccc23)c1OC" .
[reply] 52.4% (inactive)

[ask] Provide KM12 colon growth reading for "COc1cc(Cc2cc(-c3ccccc3)nn(Cc3ccccc3)c2=O)cc(OC)c1OC" .
[reply] 32.9% (inactive)

[ask] Provide KM12 colon growth reading for "CC1=C2CC/C(C)=C/CC[C@]3(C)O[C@H]3CC/C(C)=C/[C@H]2OC1" .
[reply] 120% (inactive)

[ask] Provide KM12 colon growth reading for "O=C1/C(=C/c2c[nH]c(=O)[nH]c2=O)SC(=S)N1Cc1ccccc1" .
[reply] 101% (inactive)

[ask] Provide KM12 colon growth reading for "COc1ccc(-c2nc3ccc(C)cc3c3c2c(=O)n(C)c(=O)n3C)cc1OC" .
[reply] 116% (inactive)

[ask] Provide KM12 colon growth reading for "COc1cc(O)c2c(=O)c3c(CC=C(C)C)cc(OC)c(O)c3oc2c1" .
[reply] 23.2% (inactive)

[ask] Provide KM12 colon growth reading for "CN(C)CCCn1c2c(c3ccncc3c1=O)C(=O)c1ccccc1-2" .
[reply] -12.6% (active)

[ask] Provide KM12 colon growth reading for "COc1cc2ncnc(Nc3ccc(S(=O)(=O)Nc4nccs4)cc3)c2cc1OCCCN1CCCC1" .
[reply] 121% (inactive)

[ask] Provide KM12 colon growth reading for "COc1ccc2c(c1)oc1c(C)c3c(c(C)c12)C(=O)N(CCOS(C)(=O)=O)C3=O" .
[reply] 107% (inactive)

[ask] Provide KM12 colon growth reading for "Cn1c(=O)[nH]c(=O)c2nc3c(nc21)-c1ccccc1C3=O" .
[reply] 103% (inactive)

[ask] Provide KM12 colon growth reading for "COc1cc(C[C@H]2COc3cc(O)cc(O)c3C2=O)ccc1O" .
[reply] 24.7% (inactive)

[ask] Provide KM12 colon growth reading for "Cc1ccc(S(=O)(=O)c2nc(-c3ccccc3)oc2SCC(N)=O)cc1" .
[reply] 97.9% (inactive)

[ask] Provide KM12 colon growth reading for "N#Cc1c(-c2ccccc2)nc2c(c(-c3ccccc3)nn2-c2ccccc2)c1-c1ccc(N2CCCCC2)cc1" .
[reply] 103% (inactive)

[ask] Provide KM12 colon growth reading for "Cn1c(=O)c2[nH]c(SC/C(=N/O)c3ccc(Br)cc3)nc2n(C)c1=O" .
[reply] 56.9% (inactive)

[ask] Provide KM12 colon growth reading for "COc1ccc2c(O)c(/C=C3\N=Nc4ncccc43)oc2c1C[C@@H]1CCNC[C@H]1F" .
[reply] -48.7% (active)

[ask] Provide KM12 colon growth reading for "O=C(Nc1cccnc1Nc1ccc(Cl)cc1)c1cn(Cc2cccc(Oc3ccccc3)c2)nn1" .
[reply] 31.8% (inactive)

[ask] Provide KM12 colon growth reading for C1CCC(N2CN3c4nonc4N4CN(C5CCCCC5)CN5c6nonc6N(C2)C3C45)CC1 (stereo unspecified) .
[reply] 98.8% (inactive)
